# system.under.test: T1, human IL-33 (R&D Systems, #3625-IL-010/CF) (human, UniProt O95760 112-270)
# T1 construct: Commercial recombinant protein; also called hIL-33; interleukin-33
# T1 sequence (looked up): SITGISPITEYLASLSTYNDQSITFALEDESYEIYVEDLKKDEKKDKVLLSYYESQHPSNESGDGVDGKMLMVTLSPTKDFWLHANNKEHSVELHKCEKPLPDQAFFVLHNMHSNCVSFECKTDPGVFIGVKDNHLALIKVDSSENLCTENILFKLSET
# test.details: SPR 25C, pH6.0 chase, mAb captured
# Description: Equilibrium dissociation constants (KD values) for IL-33 binding to purified anti-IL-33 monoclonal antibodies were determined using a real-time surface plasmon resonance biosensor using a Biacore 4000 instrument. […] Association of either hIL-33 or MfIL-33-6His to the captured monoclonal antibody was monitored for 4 minutes and their dissociation in ABS-ET running buffer was monitored for 10 minutes. […]
measured.property: t½ (min)
Please give a number only; it is taken to be in min.

# input Complete the entry with t½ for H4H9666P (antibody, human IgG4, V domains shown, Human IgG4 Fc (H4H)) VH: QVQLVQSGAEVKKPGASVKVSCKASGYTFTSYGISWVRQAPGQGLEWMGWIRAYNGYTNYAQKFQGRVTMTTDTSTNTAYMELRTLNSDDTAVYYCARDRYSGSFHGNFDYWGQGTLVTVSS VL: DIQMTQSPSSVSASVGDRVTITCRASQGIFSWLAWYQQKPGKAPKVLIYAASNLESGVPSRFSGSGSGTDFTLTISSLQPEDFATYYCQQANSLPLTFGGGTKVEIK
# output 9

# input Note down t½ recorded for H4H9664P (antibody, human IgG4, V domains shown, Human IgG4 Fc (H4H)) VH: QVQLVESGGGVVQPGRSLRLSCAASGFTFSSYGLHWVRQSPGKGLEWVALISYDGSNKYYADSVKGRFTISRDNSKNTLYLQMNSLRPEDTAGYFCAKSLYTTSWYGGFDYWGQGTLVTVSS VL: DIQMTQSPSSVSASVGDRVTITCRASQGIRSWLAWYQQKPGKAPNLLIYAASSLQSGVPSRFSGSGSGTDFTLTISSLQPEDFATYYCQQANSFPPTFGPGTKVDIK
# output 14

# input Supply reported t½ belonging to this binder: H4H9662P (antibody, V domains shown, Human IgG4 Fc (H4H)) VH: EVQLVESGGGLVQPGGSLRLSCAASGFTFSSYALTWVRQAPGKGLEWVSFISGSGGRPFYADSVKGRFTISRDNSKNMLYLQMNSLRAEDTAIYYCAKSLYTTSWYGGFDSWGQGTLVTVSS VL: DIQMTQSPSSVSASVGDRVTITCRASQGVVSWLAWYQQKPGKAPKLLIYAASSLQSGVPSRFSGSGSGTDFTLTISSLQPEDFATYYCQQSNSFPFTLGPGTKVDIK
# output 14
